System: CCRIS mutagenicity, Ames/micronucleus/aberration tests
ASSAY SUMMARY: CCRIS mutagenicity studies
ASSAY SETUP: Test System: CHINESE HAMSTER V-79; Strain/Indicator: V-79/OUABAIN; Metabolic Activation: NONE; Method: STANDARD PLATE
Calls of active or inactive are those of the source. How the calls were made is not given here.
// allowed return values: active, inactive

Field: example entries. Status: answers known.
CCCCCC/C=C/C=O | inactive
CC(C)=C[C@@H]1[C@@H](C(=O)OCc2coc(Cc3ccccc3)c2)C1(C)C | inactive
Oc1ccc2cc3ccc4cccc5ccc(c2c1)c3c45 | active
CC1(C)C(C=C(Cl)Cl)C1C(=O)OCc1cccc(Oc2ccccc2)c1 (stereo not given) | inactive

Could you now consider this next compound?
Enquiry: Could you check what this test reported for `Cc1c2ccccc2c(C)c2c1ccc1ccccc12` ?
Return: inactive

From: PubChem BioAssay AID1259407
